Biological target: T1, soluble human CD3 epsilon chain (human, UniProt P07766 23-126)
T1 construct: also called CD3ε
T1 sequence (P07766 23-126 limits assumed): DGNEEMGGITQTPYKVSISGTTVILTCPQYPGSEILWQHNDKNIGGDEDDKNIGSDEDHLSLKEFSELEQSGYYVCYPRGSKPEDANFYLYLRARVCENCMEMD
Assay: SPR
Readout Type: Kd (nM)
Output spec: scalar in nM, unitless text.

-- ask Identify the reported Kd for the following entry. TR01H032-E22Hh/none-Hi-Kn010G3/L0000-k0 (antibody, V domains shown, one-arm) VH: QVQLVESGGGLVQPGRSLRLSCAASGFTFSNAWMHWVRQAPGKGLEWVAQIKSKSQNYATYYAESVKGRFTISRADSKNSIYLQMNSLKTEDTAVYYCRYVHYSASYGVDAWGQGTTVTVSS VL: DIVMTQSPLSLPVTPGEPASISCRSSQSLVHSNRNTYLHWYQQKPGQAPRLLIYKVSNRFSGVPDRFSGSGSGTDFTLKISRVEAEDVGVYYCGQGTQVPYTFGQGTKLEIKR
-- reply 57.3

-- ask Identify the reported Kd for the following entry. TR01H010-E22Hh/none-Hi-Kn010G3/L0000-k0 (antibody, V domains shown, one-arm) VH: QVQLVESGGGLVQPGRSLRLSCAASGFTFSNAWMHWVRQAPGKGLEWVAQIKAKSNNYATYYAESVKGRFTISRADSKNSIYLQMNSLKTEDTAVYYCRYVHYSAYYGVDIWGQGTTVTVSS VL: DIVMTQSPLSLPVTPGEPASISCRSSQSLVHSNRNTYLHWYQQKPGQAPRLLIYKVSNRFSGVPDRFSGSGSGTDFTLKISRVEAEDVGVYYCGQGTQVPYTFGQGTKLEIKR
-- reply 37.3

Source: patent US20250066503A1
